system: HeLa Kyoto; experiment: solubility in G1/S (NP-40 vs SDS abundance) (log2 ratio); higher = more soluble; settings: cell cycle stage: G1/S
Entries and their solubility in G1/S (log2) values follow.
The response must contain the number and no unit.

Identify measured solubility in G1/S (log2) corresponding to MSDLEDDETPQLSAHALAALQEFYAEQKQQIEPGEDDKYNIGIIEENWQLSQFWYSQETALQLAQEAIAAVGEGGRIACVSAPSVYQKLRELCRENFSIYIFEYDKRFAMYGEEFIFYDYNNPLDLPERIAAHSFDIVIADPPYLSEECLRKTSETVKYLTRGKILLCTGAIMEEQAAELLGVKMCTFVPRHTRNLANEFRCYVNYDSGLDCGI [N6AMT2] -0.331

Respond only with solubility in G1/S (log2) recorded for MENQVLTPHVYWAQRHRELYLRVELSDVQNPAISITENVLHFKAQGHGAKGDNVYEFHLEFLDLVKPEPVYKLTQRQVNITVQKKVSQWWERLTKQEKRPLFLAPDFDRWLDESDAEMELRAKEEERLNKLRLESEGSPETLTNLRKGYLFMYNLVQFLGFSWIFVNLTVRFCILGKESFYDTFHTVADMMYFCQMLAVVETINAAIGVTTSPVLPSLIQLLGRNFILFIIFGTMEEMQNKAVVFFVFYLWSAIEIFRYSFYMLTCIDMDWKVLTWLRYTLWIPLYPLGCLAEAVSVIQSIPIFNETGRFSFTLPYPVKIKVRFSFFLQIYLIMIFLGLYINFRHLYKQRRRRYGQKKKKIH [HACD3] -0.3

Please look at this sequence and report its solubility in G1/S (log2): MADAAPQLGKRKRELDVEEAHAASTEEKEAGVGNGTCAPVRLPFSGFRLQKVLRESARDKIIFLHGKVNEASGDGDGEDAVVILEKTPFQVEQVAQLLTGSPELQLQFSNDIYSTYHLFPPRQLNDVKTTVVYPATEKHLQKYLRQDLRLIRETGDDYRNITLPHLESQSLSIQWVYNILDKKAEADRIVFENPDPSDGFVLIPDLKWNQQQLDDLYLIAICHRRGIRSLRDLTPEHLPLLRNILHQGQEAILQRYRMKGDHLRVYLHYLPSYYHLHVHFTALGFEAPGSGVERAHLLAEVIENLECDPRHYQQRTLTFALRADDPLLKLLQEAQQS [DCPS] 0.263

Respond only with solubility in G1/S (log2) recorded for MAELGLNEHHQNEVINYMRFARSKRGLRLKTVDSCFQDLKESRLVEDTFTIDEVSEVLNGLQAVVHSEVESELINTAYTNVLLLRQLFAQAEKWYLKLQTDISELENRELLEQVAEFEKAEITSSNKKPILDVTKPKLAPLNEGGTAELLNKEILRLQEENEKLKSRLKTIEIQATNALDEKSKLEKALQDLQLDQGNQKDFIKAQDLSNLENTVAALKSEFQKTLNDKTENQKSLEENLATAKHDLLRVQEQLHMAEKELEKKFQQTAAYRNMKEILTKKNDQIKDLRKRLAQYEPED [LZTFL1] 0.713

# return recorded solubility in G1/S (log2) for entry MDPGDDWLVESLRLYQDFYAFDLSGATRVLEWIDDKGVFVAGYESLKKNEILHLKLPLRLSVKENKGLFPERDFKVRHGGFSDRSIFDLKHVPHTRLLVTSGLPGCYLQVWQVAEDSDVIKAVSTIAVHEKEESLWPRVAVFSTLAPGVLHGARLRSLQVVDLESRKTTYTSDVSDSEELSSLQVLDADTFAFCCASGRLGLVDTRQKWAPLENRSPGPGSGGERWCAEVGSWGQGPGPSIASLGSDGRLCLLDPRDLCHPVSSVQCPVSVPSPDPELLRVTWAPGLKNCLAISGFDGTVQVYDATSWDGTRSQDGTRSQVEPLFTHRGHIFLDGNGMDPAPLVTTHTWHPCRPRTLLSATNDASLHVWDWVDLCAPR [WDR73] -0.0335

====

Below, each entry is listed with its recorded melting temperature.
test system: HeLa Kyoto; assay: melting temperature (median over replicates), in situ; higher = more thermally stable; conditions: cell cycle stage: G1/S
Your answer is read as °C, so omit the unit and give the number.

- sequence string: "MDKNELVQKAKLAEQAERYDDMAACMKSVTEQGAELSNEERNLLSVAYKNVVGARRSSWRVVSSIEQKTEGAEKKQQMAREYREKIETELRDICNDVLSLLEKFLIPNASQAESKVFYLKMKGDYYRYLAEVAAGDDKKGIVDQSQQAYQEAFEISKKEMQPTHPIRLGLALNFSVFYYEILNSPEKACSLAKTAFDEAIAELDTLSEESYKDSTLIMQLLRDNLTLWTSDTQGDEAEAGEGGEN [YWHAZ]"
  unit: "°C"
  melting temperature: 54.9
- sequence string: "MLEEDMEVAIKMVVVGNGAVGKSSMIQRYCKGIFTKDYKKTIGVDFLERQIQVNDEDVRLMLWDTAGQEEFDAITKAYYRGAQACVLVFSTTDRESFEAVSSWREKVVAEVGDIPTVLVQNKIDLLDDSCIKNEEAEALAKRLKLRFYRTSVKEDLNVNEVFKYLAEKYLQKLKQQIAEDPELTHSSSNKIGVFNTSGGSHSGQNSGTLNGGDVINLRPNKQRTKKNRNPFSSCSIP [RAB23]"
  unit: "°C"
  melting temperature: 53.2
- sequence string: "MLFLALGSPWAVELPLCGRRTALCAAAALRGPRASVSRASSSSGPSGPVAGWSTGPSGAARLLRRPGRAQIPVYWEGYVRFLNTPSDKSEDGRLIYTGNMARAVFGVKCFSYSTSLIGLTFLPYIFTQNNAISESVPLPIQIIFYGIMGSFTVITPVLLHFITKGYVIRLYHEATTDTYKAITYNAMLAETSTVFHQNDVKIPDAKHVFTTFYAKTKSLLVNPVLFPNREDYIHLMGYDKEEFILYMEETSEEKRHKDDK [TMEM70]"
  unit: "°C"
  melting temperature: 54.1
- sequence string: "MGAQLSTLGHMVLFPVWFLYSLLMKLFQRSTPAITLESPDIKYPLRLIDREIISHDTRRFRFALPSPQHILGLPVGQHIYLSARIDGNLVVRPYTPISSDDDKGFVDLVIKVYFKDTHPKFPAGGKMSQYLESMQIGDTIEFRGPSGLLVYQGKGKFAIRPDKKSNPIIRTVKSVGMIAGGTGITPMLQVIRAIMKDPDDHTVCHLLFANQTEKDILLRPELEELRNKHSARFKLWYTLDRAPEAWDYGQGFVNEEMIRDHLPPPEEEPLVLMCGPPPMIQYACLPNLDHVGHPTERCFVF [CYB5R3]"
  unit: "°C"
  melting temperature: 56
- sequence string: "MERPDKAALNALQPPEFRNESSLASTLKTLLFFTALMITVPIGLYFTTKSYIFEGALGMSNRDSYFYAAIVAVVAVHVVLALFVYVAWNEGSRQWREGKQD [VMA21]"
  unit: "°C"
  melting temperature: 55.6

// below: melting temperature requested for another sequence
State its melting temperature: MGRSRSRSPRRERRRSRSTSRERERRRRERSRSRERDRRRSRSRSPHRRRSRSPRRHRSTSPSPSRLKERRDEEKKETKETKSKERQITEEDLEGKTEEEIEMMKLMGFASFDSTKGKKVDGSVNAYAINVSQKRKYRQYMNRKGGFNRPLDFIA [SNRNP27] 54

====

test system: HeLa Kyoto; assay: melting temperature (median over replicates), in situ; higher = more thermally stable; conditions: cell cycle stage: mitosis
Below is a list of entries, each paired with its recorded melting temperature value.
Write the value in °C as a bare number.

- sequence string: "MAAAPQAPGRGSLRKTRPLVVKTSLNNPYIIRWSALESEDMHFILQTLEDRLKAIGLQKIEDKKKKNKTPFLKKESREKCSIAVDISENLKEKKTDAKQQVSGWTPAHVRKQLAIGVNEVTRALERRELLLVLVCKSVKPAMITSHLIQLSLSRSVPACQVPRLSERIAPVIGLKCVLALAFKKNTTDFVDEVRAIIPRVPSLSVPWLQDRIEDSGENLETEPLESQDRELLDTSFEDLSKPKRKLADGRQASVTLQPLKIKKLIPNPNKIRKPPKSKKATPK [RPP38]"
  melting temperature, °C: 51.7
- sequence string: "METSAPRAGSQVVATTARHSAAYRADPLRVSSRDKLTEMAASSQGNFEGNFESLDLAEFAKKQPWWRKLFGQESGPSAEKYSVATQLFIGGVTGWCTGFIFQKVGKLAATAVGGGFFLLQLANHTGYIKVDWQRVEKDMKKAKEQLKIRKSNQIPTEVRSKAEEVVSFVKKNVLVTGGFFGGFLLGMAS [FUNDC2]"
  melting temperature, °C: 55.9
- sequence string: "MAYPGHPGAGGGYYPGGYGGAPGGPAFPGQTQDPLYGYFAAVAGQDGQIDADELQRCLTQSGIAGGYKPFNLETCRLMVSMLDRDMSGTMGFNEFKELWAVLNGWRQHFISFDTDRSGTVDPQELQKALTTMGFRLSPQAVNSIAKRYSTNGKITFDDYIACCVKLRALTDSFRRRDTAQQGVVNFPYDDFIQCVMSV [SRI]"
  melting temperature, °C: 52.2
- sequence string: "MGTPGEGLGRCSHALIRGVPESLASGEGAGAGLPALDLAKAQREHGVLGGKLRQRLGLQLLELPPEESLPLGPLLGDTAVIQGDTALITRPWSPARRPEVDGVRKALQDLGLRIVEIGDENATLDGTDVLFTGREFFVGLSKWTNHRGAEIVADTFRDFAVSTVPVSGPSHLRGLCGMGGPRTVVAGSSDAAQKAVRAMAVLTDHPYASLTLPDDAAADCLFLRPGLPGVPPFLLHRGGGDLPNSQEALQKLSDVTLVPVSCSELEKAGAGLSSLCLVLSTRPHS [DDAH2]"
  melting temperature, °C: 54
- sequence string: "MTTYSDKGAKPERGRFLHFHSVTFWVGNAKQATSFYCSKMGFEPLAYRGLETGSREVVSHVIKQGKIVFVLSSALNPWNKEMGDHLVKHGDGVKDIAFEVEDCDYIVQKARERGAKIMREPWVEQDKFGKVKFAVLQTYGDTTHTLVEKMNYIGQFLPGYEAPAFMDPLLPKLPKCSLEMIDHIVGNQPDQEMVSASEWYLKNLQFHRFWSVDDTQVHTEYSSLRSIVVANYEESIKMPINEPAPGKKKSQIQEYVDYNGGAGVQHIALKTEDIITAIRHLRERGLEFLSVPSTYYKQLREKLKTAKIKVKENIDALEELKILVDYDEKGYLLQIFTKPVQDRPTLFLEVIQRHNHQGFGAGNFNSLFKAFEEEQNLRGNLTNMETNGVVPGM [HPD]"
  melting temperature, °C: 53.5

Would you kindly look at the next entry?
Find the measured melting temperature of MMKFKPNQTRTYDREGFKKRAACLCFRSEQEDEVLLVSSSRYPDQWIVPGGGMEPEEEPGGAAVREVYEEAGVKGKLGRLLGIFENQDRKHRTYVYVLTVTEILEDWEDSVNIGRKREWFKVEDAIKVLQCHKPVHAEYLEKLKLGCSPANGNSTVPSLPDNNALFVTAAQTSGLPSSVR [NUDT4] and report it. 49.3

The reported numbers originate from the supplement of paper PMC5998384.
